# Test Protocol: Mean residence time in Sprague-Dawley rat at 10 mg/kg, iv
# Type: ADME, organism-based
# Condition Set: in vivo
Result Type: MRT (min)

{"Compound Structure": "CC(C)Cc1cc(CNS(=O)(=O)c2cccc(F)c2)nn1-c1ccccc1", "Readout Unit": "min", "Numeric Value": 58}

====

# Test Protocol: Drug uptake in Sprague-Dawley rat brain at 10 mg/kg, po at 2 hrs post dose
# Format: ADME, organism-based
# Condition Set: read-out: Drug uptake

{"Compound Structure": "CC(C)Cc1cc(CNS(=O)(=O)c2cccc(F)c2)nn1-c1ccccc1", "concentration at 2 h, ng/mL": 8.6}
